Test system: THP-1 (acute monocytic leukemia)
Assay name: MTT proliferation assay, THP-1
Assay type: cell-based, human
Condition summary: Homo sapiens, THP-1; 72 h treatment, MTT
pIC50: −log10 of the molar value.
Measurement kind: pIC50

| Compound | Target under test | Test result |
| --- | --- | --- |
| Clc1ccc2c(NCCn3cc(COc4ccc(-c5nc6ccccc6[nH]5)cc4)nn3)ccnc2c1 [Compound 14a] | THP-1 (acute monocytic leukemia) | < 4.00 |
| Cl.Cl.Cl.N=C(N)c1ccc2[nH]c(-c3ccc(OCc4cn(CCNc5ccnc6cc(Cl)ccc56)nn4)c(Br)c3)nc2c1 [Compound 15d] | THP-1 (acute monocytic leukemia) | < 4.00 |
| CCCNC(=N)c1ccc2[nH]c(-c3ccc(OCc4cn(-c5ccnc6cc(Cl)ccc56)nn4)c(Br)c3)nc2c1.Cl.Cl.Cl [Compound 10e] | THP-1 (acute monocytic leukemia) | < 4.00 |
| COc1ccc2[nH]c(-c3ccc(OCc4cn(CCNc5ccnc6cc(Cl)ccc56)nn4)c(Br)c3)nc2c1 [Compound 15c] | THP-1 (acute monocytic leukemia) | 5.78 |

Quick check: pIC50 of Clc1ccc2[nH]c(-c3ccc(OCc4cn(-c5ccnc6cc(Cl)ccc56)nn4)cc3)nc2c1 [Compound 9b] ?
< 4.00

Quick check: pIC50 of Cl.Cl.Cl.N=C(N)c1ccc2[nH]c(-c3ccc(OCc4cn(-c5ccnc6cc(Cl)ccc56)nn4)cc3)nc2c1 [Compound 9d] ?
< 4.00

Quick check: pIC50 of COc1ccc2[nH]c(-c3ccc(OCc4cn(CCNc5ccnc6cc(Cl)ccc56)nn4)cc3)nc2c1 [Compound 14c] ?
5.14

The reported measurements were obtained from paper PMC10574761.
